- Tested on: NCI-H23
- procedure summary: NCI tumour cell line growth inhibition, 48 h
The source made the active and inactive calls. Cut-off read from the data, not from the text of the source: active = GI50 up to about 1.1 µM and inactive = higher.
Please answer using one outcome listed in Y (active), N (inactive)

// return assay outcome for OCc1c2c(cc3c1CC1(C3)Cc3cc4c(c(CO)c3C1)CCC4)CCC2
N

// return assay outcome for CC[C@]12C=CCN3CCC4(c5cc([C@@]6(C(=O)OC)CC7CN(CCc8c6[nH]c6ccccc86)C[C@@H]6CCCC[C@H]76)c(OC)cc5N(C)C4[C@](O)(C(=O)OC)C1OC(C)=O)[C@@H]32 (stereo not given in full)
Y

* * *

- Tested on: LXFL 529
- procedure summary: NCI tumour cell line growth inhibition, 48 h
The source made the active and inactive calls. Rule as the data show it: active = GI50 up to about 1.1 µM and inactive = higher.
quantity: GI50

Study these solved cases before continuing.
> print(dat)
                                   compound  measurement.target  quantity       value.reported
1  O=[N+]([O-])C1C2C=CC(C2)[C@H]1c1ccco1 (stereo not given in full)            LXFL 529      GI50  > 100 µM (inactive)
2  COc1ccc(-c2oc(/C=N/c3ccccc3)c([N+](=O)[O-])c2-c2ccc(OC)c(OC)c2)cc1OC            LXFL 529      GI50  > 100 µM (inactive)

Using the record for CN(C)c1nc(N(C)C)nc(N(C)CN(C)c2ccccc2)n1 , state its measured GI50.
> 100 µM (inactive)

Using the record for O=[N+]([O-])c1ccc(-c2ccc(C3=Nn4c(CNc5ccccc5Cl)nnc4SC3)o2)cc1 , state its measured GI50.
82.4 µM (inactive)

Using the record for NNC(=O)N/N=C1\CNC(=O)C(=O)C1c1nc2ccccc2s1 (stereo not given) , state its measured GI50.
> 100 µM (inactive)

* * *

Reported GI50 values for the following molecules.
- Test system: TK-10
- procedure summary: NCI tumour cell line growth inhibition, 48 h
Active and inactive are the calls of the source. No stated cut-off is given here; in the data, active = GI50 up to about 1.1 µM and inactive = higher.

Study these solved cases before continuing.
> print(dat)
                                   molecule       value.reported
1  CN(C)C(=O)C(F)(F)C(c1ccc(F)cc1)C1C(=O)N(C)C(=O)N(C)C1=O (stereo not given)  > 100 µM (inactive)
2  CCCc1cn2c(/C=N/NC(=N)N)c(-c3ccc(Cl)c([N+](=O)[O-])c3)nc2s1   1.54 µM (inactive)
3   O=C1c2ccccc2N1C(=O)c1ccccc1[N+](=O)[O-]  > 100 µM (inactive)
4  COc1c(OC2OC(CO)C(O)C(O)C2O)cc2c(c1OC)-c1ccc(OC)c(=O)cc1C(NC(C)=O)CC2 (stereo not given)  > 100 µM (inactive)

Using the record for C=C(C)[C@@H](C(=O)OC)N1C(=O)c2ccccc2C1=O , state its measured GI50.
> 100 µM (inactive)

* * *

- Tested on: UACC-62
- procedure summary: NCI tumour cell line growth inhibition, 48 h
Active and inactive are the calls of the source. Cut-off read from the data, not from the text of the source: active = GI50 up to about 1.1 µM and inactive = higher.
quantity: GI50

Study these solved cases before continuing.
> print(dat)
                                    compound  measurement.target  quantity       value.reported
 1  N#CC1=C(N)N(c2ccccc2)C(c2ccco2)C1(C#N)C#N (stereo unspecified)             UACC-62      GI50   23.2 µM (inactive)
 2  COc1ccc(C2ON(c3ccccn3)CC=C2C)cc1 (stereo unspecified)             UACC-62      GI50  > 100 µM (inactive)
 3  CSC(=N)N1N=C2c3ccccc3CC[C@@H]2[C@@H]1c1ccccc1             UACC-62      GI50     17 µM (inactive)
 4  c1ccc2c(c1)CCN1CCc3ccccc3C1C2 (stereo unspecified)             UACC-62      GI50   29.7 µM (inactive)
 5      O=C(OCc1ccccc1CN1CCOCC1)c1cccc(Br)c1             UACC-62      GI50   33.6 µM (inactive)
 6  CCOC(=O)C1CCC/C1=N\NC(=N)N.Cc1cc(O)c(C(C)C)cc1S(=O)(=O)O (stereo unspecified)             UACC-62      GI50  > 100 µM (inactive)
 7  O=C(/C=C(\C(=O)c1cccs1)c1cccs1)c1ccc(C(=O)/C=C(\C(=O)c2cccs2)c2cccs2)cc1             UACC-62      GI50  > 100 µM (inactive)
 8  c1ccc(COc2ccc3[nH]c4c5c6ccccc6nc-5c[nH]c4c3c2)cc1             UACC-62      GI50   19.6 µM (inactive)
 9                    C[Si]12OCCCN(CCO1)CCO2             UACC-62      GI50  > 100 µM (inactive)
10        Cn1c(=O)ccc2cc(C(=O)c3ccccc3)ccc21             UACC-62      GI50   14.6 µM (inactive)

Using the record for CSCC(COC(C)=O)(CSC)c1ccncc1 , state its measured GI50.
> 100 µM (inactive)
